# test-details: self-splicing fitness, log relative to wild type (ln ratio); higher = more splicing; Tetrahymena group I intron in knt gene, E. coli kanamycin selection, DiMSum; sequences stand for … in CUCUCU…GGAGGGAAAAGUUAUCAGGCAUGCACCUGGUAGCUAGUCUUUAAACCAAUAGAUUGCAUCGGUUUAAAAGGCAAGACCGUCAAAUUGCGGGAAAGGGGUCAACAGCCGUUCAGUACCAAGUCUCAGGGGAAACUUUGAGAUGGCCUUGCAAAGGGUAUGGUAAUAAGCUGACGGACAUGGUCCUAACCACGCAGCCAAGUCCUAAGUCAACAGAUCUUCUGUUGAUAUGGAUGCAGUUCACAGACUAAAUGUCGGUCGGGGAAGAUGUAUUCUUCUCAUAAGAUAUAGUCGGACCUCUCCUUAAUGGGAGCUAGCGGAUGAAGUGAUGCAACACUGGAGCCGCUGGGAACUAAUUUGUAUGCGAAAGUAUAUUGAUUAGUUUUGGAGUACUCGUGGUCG;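 also: selection with 25 µg/mL kanamycin versus none on LB agar overnight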
# experimental-conditions: 37 °C
value-kind: self-splicing fitness (ln)
Lab note: jot the number down without any unit.

Before answering, review these 5 worked examples.
Incoming: I would be grateful if you could share the reported self-splicing fitness (ln) for AACUAGCAAUAUUACGAAGG .
Outgoing: -2.74

Incoming: I would be grateful if you could share the reported self-splicing fitness (ln) for CAACAGCAAUAUUACGAUAA .
Outgoing: -1.67

Incoming: I would be grateful if you could share the reported self-splicing fitness (ln) for GUAGAGCAAUAUUACGCUCA .
Outgoing: -0.0338

Incoming: I would be grateful if you could share the reported self-splicing fitness (ln) for UAGGAGCAAUAUUACGCGCA .
Outgoing: -0.414

Incoming: I would be grateful if you could share the reported self-splicing fitness (ln) for UUACAGCAAUAUUACGCUGG .
Outgoing: -2.08

Continuing:
Incoming: I would be grateful if you could share the reported self-splicing fitness (ln) for GAUUAGCAAUAUUACGUCGU .
Outgoing: -1.13

Incoming: I would be grateful if you could share the reported self-splicing fitness (ln) for GUCAAGCAAUAUUACGCUUG .
Outgoing: -2.06

Incoming: I would be grateful if you could share the reported self-splicing fitness (ln) for UGAGAGCAAUAUUACGAGUA .
Outgoing: -2.16

Incoming: I would be grateful if you could share the reported self-splicing fitness (ln) for CUAUAGCAAUAUUACGUUAU .
Outgoing: -2.38

Incoming: I would be grateful if you could share the reported self-splicing fitness (ln) for AAGGAGCAAUAUUACGAAAU .
Outgoing: -3

Incoming: I would be grateful if you could share the reported self-splicing fitness (ln) for AUCAAGCAAUAUUACGCAGA .
Outgoing: -2.52

Incoming: I would be grateful if you could share the reported self-splicing fitness (ln) for ACAAAGCAAUAUUACGAGUG .
Outgoing: -0.772

====

# self-splicing fitness (ln) per record follows
# test-details: self-splicing fitness, log relative to wild type (ln ratio); higher = more splicing; Tetrahymena group I intron in knt gene, E. coli kanamycin selection, DiMSum; sequences stand for … in CUCUCU…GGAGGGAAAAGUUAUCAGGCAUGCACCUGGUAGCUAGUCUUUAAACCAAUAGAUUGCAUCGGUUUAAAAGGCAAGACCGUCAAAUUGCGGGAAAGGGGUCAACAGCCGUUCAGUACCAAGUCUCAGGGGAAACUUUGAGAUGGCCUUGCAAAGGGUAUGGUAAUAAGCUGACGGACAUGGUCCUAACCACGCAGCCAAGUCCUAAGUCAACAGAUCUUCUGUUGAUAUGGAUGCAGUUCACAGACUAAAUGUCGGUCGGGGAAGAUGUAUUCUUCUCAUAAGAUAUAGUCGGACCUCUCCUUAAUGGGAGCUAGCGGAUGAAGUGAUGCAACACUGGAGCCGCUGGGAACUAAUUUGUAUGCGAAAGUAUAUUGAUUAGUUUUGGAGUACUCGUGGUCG
# experimental-conditions: 37 °C
Lab note: jot the number down without any unit.

Before answering, review these 10 worked examples.
Incoming: I would be grateful if you could share the reported self-splicing fitness (ln) for GCGCAGCAAUAUUACGACGC .
Outgoing: -1.81

Incoming: I would be grateful if you could share the reported self-splicing fitness (ln) for AUCGAGCAAUAUUACGUUAG .
Outgoing: -0.583

Incoming: I would be grateful if you could share the reported self-splicing fitness (ln) for CGGUAGCAAUAUUACGCGGG .
Outgoing: -1.88

Incoming: I would be grateful if you could share the reported self-splicing fitness (ln) for GACAAGCAAUAUUACGAGUG .
Outgoing: -0.456

Incoming: I would be grateful if you could share the reported self-splicing fitness (ln) for AACAAGCAAUAUUACGGAGC .
Outgoing: -3.65

Incoming: I would be grateful if you could share the reported self-splicing fitness (ln) for GAUAAGCAAUAUUACGUUGC .
Outgoing: -2.3

Incoming: I would be grateful if you could share the reported self-splicing fitness (ln) for AGUCAGCAAUAUUACGAGAG .
Outgoing: -1.67

Incoming: I would be grateful if you could share the reported self-splicing fitness (ln) for UGCCAGCAAUAUUACGACUU .
Outgoing: -1.46

Incoming: I would be grateful if you could share the reported self-splicing fitness (ln) for CUCUAGCAAUAUUACGAAAG .
Outgoing: -2.11

Incoming: I would be grateful if you could share the reported self-splicing fitness (ln) for CUCAAGCAAUAUUACGCAAU .
Outgoing: -1.53

Continuing:
Incoming: I would be grateful if you could share the reported self-splicing fitness (ln) for UACAAGCAAUAUUACGAACU .
Outgoing: -0.628

Incoming: I would be grateful if you could share the reported self-splicing fitness (ln) for GCGUAGCAAUAUUACGAGUA .
Outgoing: -0.623

====

# test-details: self-splicing fitness, log relative to wild type (ln ratio); higher = more splicing; Tetrahymena group I intron in knt gene, E. coli kanamycin selection, DiMSum; sequences stand for … in CUCUCU…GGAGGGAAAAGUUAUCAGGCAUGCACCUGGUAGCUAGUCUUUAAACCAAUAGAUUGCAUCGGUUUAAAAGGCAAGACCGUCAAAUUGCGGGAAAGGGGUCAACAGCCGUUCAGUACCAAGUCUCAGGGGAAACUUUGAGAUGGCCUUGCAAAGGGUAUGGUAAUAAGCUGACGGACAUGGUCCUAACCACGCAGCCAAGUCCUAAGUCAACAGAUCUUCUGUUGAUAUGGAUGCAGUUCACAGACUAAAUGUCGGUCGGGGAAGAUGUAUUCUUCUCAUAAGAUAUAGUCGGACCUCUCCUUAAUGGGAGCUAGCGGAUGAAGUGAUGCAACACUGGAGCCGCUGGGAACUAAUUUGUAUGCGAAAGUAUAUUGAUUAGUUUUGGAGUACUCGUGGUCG
# experimental-conditions: 30 °C
value-kind: self-splicing fitness (ln)
Lab note: jot the number down without any unit.

Incoming: I would be grateful if you could share the reported self-splicing fitness (ln) for CAUCAGCAAUAUUACGGCUC .
Outgoing: -1.91

Incoming: I would be grateful if you could share the reported self-splicing fitness (ln) for CUGUAGCAAUAUUACGGGAG .
Outgoing: -4.83

Incoming: I would be grateful if you could share the reported self-splicing fitness (ln) for ACCAAGCAAUAUUACGUCUA .
Outgoing: -1.29

Incoming: I would be grateful if you could share the reported self-splicing fitness (ln) for AAGAAGCAAUAUUACGCGGG .
Outgoing: -2.95

Incoming: I would be grateful if you could share the reported self-splicing fitness (ln) for ACACAGCAAUAUUACGCGCU .
Outgoing: -0.741

Switching to the query record.
Incoming: I would be grateful if you could share the reported self-splicing fitness (ln) for UGGUAGCAAUAUUACGAUGG .
Outgoing: -2.44

====

# test-details: self-splicing fitness, log relative to wild type (ln ratio); higher = more splicing; Tetrahymena group I intron in knt gene, E. coli kanamycin selection, DiMSum; sequences stand for … in CUCUCU…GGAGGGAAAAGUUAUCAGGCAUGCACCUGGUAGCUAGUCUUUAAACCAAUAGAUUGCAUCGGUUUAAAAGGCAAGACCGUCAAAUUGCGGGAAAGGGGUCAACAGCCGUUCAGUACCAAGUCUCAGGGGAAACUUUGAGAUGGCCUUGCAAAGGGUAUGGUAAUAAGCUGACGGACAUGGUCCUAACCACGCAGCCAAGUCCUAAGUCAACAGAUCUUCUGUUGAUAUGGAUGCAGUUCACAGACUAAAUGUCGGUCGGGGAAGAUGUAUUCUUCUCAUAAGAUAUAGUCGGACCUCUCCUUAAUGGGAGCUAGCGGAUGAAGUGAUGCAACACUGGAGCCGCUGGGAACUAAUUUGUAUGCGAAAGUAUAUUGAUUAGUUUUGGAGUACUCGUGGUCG
# experimental-conditions: 37 °C
Parameter threshold = -2. Response is 1 when self-splicing fitness (ln) meets or exceeds it, else 0.

Incoming: Does CUAGAGCAAUAUUACGUGGC have a reported self-splicing fitness (ln) of at least -2?
Outgoing: 1

Turning now to a further sequence:
Incoming: Does ACAAAGCAAUAUUACGUAUA have a reported self-splicing fitness (ln) of at least -2?
Outgoing: 0
